- Test system: HCT-116
- Test protocol: NCI tumour cell line growth inhibition, 48 h
Activity calls are given as the source filed them. No stated cut-off is given here; in the data, active = GI50 up to about 1.1 µM and inactive = higher. Bridge positions count the residues as written; N and C are the ends. Square brackets hold non-standard residues; d marks the D form. Peptide text beside a SMILES is read from it. * marks the point of attachment. Cya = N[CH](CS(=O)(=O)O)C(=O)O; X49 = CC(C)CCCCCCCC(O)CC(=O)*; GABA = NCCCC(=O)O
Choose one outcome from this list and give only that: class 1 = active, class 0 = inactive

Observe how each entry below is paired with its result.
O=C(c1ccccc1)c1c(C(=O)c2ccccc2)c(-c2ccccc2)c2c(-c3ccccc3)sc(-c3ccccc3)c2c1-c1ccccc1	class 0
COCCCCCC(=O)CP(=O)(OC)OC	class 0
Oc1cccc(-c2nc3cc(F)ccc3s2)c1	class 0
CC(C)CCCCCCCC(O)CC(=O)NC(CS(=O)(=O)O)C(=O)NC(CC(C)C)C(=O)NCCCC(=O)NC(Cc1c[nH]cn1)C(=O)NC(C)C(=O)NC1C(=O)NC(C(C)O)C(=O)NC(Cc2c[nH]cn2)C(=O)NC(C)C(=O)NC(C(C)O)C(=O)OC1C (configuration not stated) (X49-[Cya]L[GABA]HATTHAT; ester 6-C; configuration not given here)	class 0
O=C(NS(=O)(=O)Nc1ccc(Cl)cc1)OCc1ccc(Cl)cc1Cl	class 0

Hi, sorry to bother you, what did the test record for CC1[C@@]2(CCC(C)(C)O2)O[C@@H]2C=C3C4CCC5Cc6nc7c(nc6C[C@@]5(C)C4C[C@H](O)[C@@]3(C)[C@]12O)CC1CCC2C3=C[C@H]4O[C@@]5(O[C@@](C)(CO)C[C@@H]5O)C(C)[C@@]4(O)[C@]3(C)[C@@H](O)CC2[C@]1(C)C7 (some centres not stated) ?
class 1

Hi, sorry to bother you, what did the test record for `CC1(C)CC(=O)C(Cc2ccccc2)(Cc2ccccc2)C(=O)C1` ?
class 0

Hi, sorry to bother you, what did the test record for `N=C1N(/N=C/c2ccccn2)/C(=N\c2ccccc2)C(=S)N1c1ccccc1` ?
class 0

Hi, sorry to bother you, what did the test record for `COc1ccc2c(c1)[n+]([O-])c(-c1ccc(Cl)c(Cl)c1)c(N)[n+]2[O-]` ?
class 0

Hi, sorry to bother you, what did the test record for `O=C(c1ccccc1)c1ccc2c(c1)NC(=O)c1ccccc1SSc1ccccc1C(=O)N2` ?
class 0

Hi, sorry to bother you, what did the test record for `N#CS/C(Cl)=C(/C(Cl)=C(Cl)Cl)[N+](=O)[O-]` ?
class 0

Hi, sorry to bother you, what did the test record for CC1CC(=O)N(N(C)C)C2(C#N)C(=O)N=C(N)C12C#N (configuration not stated) ?
class 0

Hi, sorry to bother you, what did the test record for Cc1c(N)nc([C@H](CC(N)=O)NC[C@H](N)C(N)=O)nc1C(=O)N[C@H](C(=O)N[C@H](C)[C@@H](O)[C@H](C)C(=O)N[C@H](C(=O)NCCc1nc(-c2nc(C(=O)NCCC[S+](C)C)cs2)cs1)[C@@H](C)O)C(OC1OC(CO)C(O)C(O)C1OC1OC(CO)C(O)C(OC(N)=O)C1O)c1c[nH]cn1 (some centres not stated) ?
class 1

Hi, sorry to bother you, what did the test record for `CC[C@H](C)C1=C(O)[N@+]2([O-])Oc3ccc(-c4c(O)c(O)c(-c5ccc(OC(C)=O)cc5)c(OC(C)=O)c4OC(C)=O)cc3O[C@]2([C@@H](C)CC)C(=O)N1O` ?
class 0

Hi, sorry to bother you, what did the test record for `CCOc1cc2c(C(=O)CC)c(O)ccc2o1` ?
class 0
